target: human histamine H4 receptor (Homo sapiens, UniProt Q9H3N8); construct: membrane preparation; test: Binding Assay on Recombinant Human Histamine H4 Receptor; conditions: competition binding with 3H-histamine, membranes of SK-N-MC or COS7 cells transfected with human H4R; average of results obtained
Where a name gives a salt, the structure may show the parent alone.
attributeMeasured: Ki (µM)

Examples with answers:
• Nc1nc(N2CC(N)C2)c2sc3c(c2n1)CC(F)(F)CC3 = 0.17
• CN(CCN)c1nc(N)nc2c3c(oc12)CCC(F)(F)C3 = 0.15
• c1nc(N2CCNCC2)c2oc3c(c2n1)CCCC3 = 0.11
• Nc1nc(N2CCCNCC2)c2oc3c(c2n1)CC(F)(F)CC3 = 0.0082
• Nc1nc(N2CCC[C@H](N)C2)c2sc3c(c2n1)CCCC3 = 0.123
• CC1CCc2sc3c(N4CCN(C)CC4)nc(N)nc3c2C1 (centres unmarked) [Example 43, trifluoroacetic acid salt] = 0.007

[P] CN[C@@H]1CCN(c2nc(N)nc3c4c(oc23)CCC(C)(C)C4)C1 [Example 137, hydrochloride]
[Q] CN1CCN(c2ncnc3c4c(oc23)CCCC4)CC1
Rank P against Q by their Ki values and give the higher one. Choose, then provide that item's label.
Q
(Q: 0.053 µM, P: 0.018 µM)
